# protocol: qHTS assay for small molecule antagonists of retinoid X receptor alpha signaling (AID 588546);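 further: cells stimulated with 9-cis-retinoic acid as agonist; on the % scale 0 is the no-effect control and ±100 the full control effect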
# measurement_conditions: HEK293T RXRa-UAS-bla, beta-lactamase ratio, antagonist mode; measured here: W530 green channel, cytotoxicity proxy
Inconclusive results are not listed.
assay_metric: max response (%)
API: value field is a number in %; no unit string.

Inquiry: Entry CNC[C@H](O)c1ccc(O)c(O)c1 : reported max response = ?
Reply text: -9.39

###

# protocol: Quantitative High-Throughput drug screen in 47 multiple myeloma cell lines against the NCATS MIPE library collection: SKMM1_PLB cell viability assay (AID 1919863); further: potency means the concentration at half of the fitted maximal effect; nearly all actives have a fitted effect of over 35% in size
# measurement_conditions: SKMM1 myeloma viability, CellTiter-Glo ATP, 48 h
Results filed as inconclusive are left out. The source made the active and inactive calls. Calls follow the shape of the dose curve; as a rule, active = well fitted cell-killing curve with a large enough effect; inconclusive = small, poorly fitted or top-dose-only effect, or effect the other way; inactive = no such curve, though single readings can be large or run the other way.
Items are presented alongside their recorded Potency.

Clc1ccc(C(Cn2ccnc2)OCc2ccsc2Cl)c(Cl)c1 (centres undefined): 13.2 µM (active)
CC[C@]1(O)C[C@H]2CN(CCc3c([nH]c4ccccc34)[C@@](C(=O)OC)(c3cc4c(cc3OC)N(C=O)[C@H]3[C@@](O)(C(=O)OC)[C@H](OC(C)=O)[C@]5(CC)C=CCN6CC[C@]43[C@@H]65)C2)C1: 0.0053 µM (active)

Inquiry: Entry O=Nc1c(-c2c(O)[nH]c3cc(Br)ccc23)[nH]c2ccccc12 : reported Potency = ?
Reply text: 20.9 µM (active)

Inquiry: CCCOc1ccc2nc(NC(=O)OC)[nH]c2c1 , same question.
Reply text: 0.0093 µM (active)

###

# protocol: qHTS of pediatric cancer cell lines to identify multiple opportunities for drug repurposing: Primary screen for BT-37 cells (AID 1347094)
# measurement_conditions: BT-37 viability, CellTiter-Glo luminescence, 48 h; series mostly up to 57.3 µM
Records with an inconclusive call do not appear. Active and inactive are the calls of the source. Calls come from the whole dose curve; as a rule, active = well fitted cell-killing curve with a large enough effect; inconclusive = small, poorly fitted or top-dose-only effect; inactive = flat fitted curve, though single readings scatter. Peptide text beside a SMILES is read from it.
Select the matching outcome among yes (active), no (inactive)

Sample answers from the record:
NC(=NCc1ccccc1)NC(=O)c1nc(Cl)c(N)nc1N: no
O=C1c2c(O)cc(O)cc2OC(c2ccc(O)c(O)c2)C1O (configuration not stated): no
NNc1nncc2ccccc12: no
Cc1nccn1CC1CCc2c(c3ccccc3n2C)C1=O (configuration not stated): no
CC(C)c1ccc2c(c1)c(SC(C)(C)C)c(CC(C)(C)C(=O)O)n2Cc1ccc(Cl)cc1: yes
COC(=O)[C@H](Cc1ccccc1)NC(=O)[C@@H](N)CC(=O)O (H-Asp-Phe-OMe): no
Clc1ccc(C(Cn2ccnc2)OCc2ccsc2Cl)c(Cl)c1 (configuration not stated): yes
O=c1c(O)c(-c2ccc(O)cc2O)oc2cc(O)cc(O)c12: no

Inquiry: State the result this test recorded for CC1=C(C)C(=O)C(C(CCCCCC(=O)O)c2ccccc2)=C(C)C1=O (configuration not stated) .
Reply text: no

Inquiry: Cc1cccc(C#Cc2ccccc2)n1 , same question.
Reply text: no

Inquiry: CN1C(C(=O)Nc2ccccn2)=C(O)c2sccc2S1(=O)=O , same question.
Reply text: no

###

# protocol: Identifying Small Molecule Inhibitors of Pancreatic Cancer Stem Cells (A278, Adherent) (AID 1259361);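 further: viability read after 48 h compound exposure; nearly all actives have a fitted effect of over 35% in size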
# measurement_conditions: series mostly up to 46.1 µM
# Source text: Progenitor-like cancer cells, often referred to as cancer stem cells (CSC), are believed to be the drivers of therapeutic resistance and rapid recurrence. CSCs are postulated to reside in specific niches characterized by low oxygen tension, limited nutrient supply, and high redox load. Selectively targeting CSC, alone or in combination with cytotoxic agents, as a means to produce durable remissions is an appealing concept. […]
Inconclusive results are not listed. Active and inactive are the calls of the source. Calls follow the shape of the dose curve; as a rule, active = well fitted cell-killing curve with a large enough effect; inconclusive = small, poorly fitted or top-dose-only effect; inactive = flat fitted curve, though single readings scatter.
assay_metric: IC50 (viability decrease)

Solved entries (count: 6):
S=c1nc[nH]c2nc[nH]c12: 1710 nM (active)
Cc1cccc(C#Cc2ccccc2)n1: inactive
Cc1cccc(-c2[nH]ncc2-c2ccc3ncccc3n2)n1: inactive
Nc1nc(Cl)nc2c1ncn2[C@H]1C[C@H](O)[C@@H](CO)O1: 95.9 nM (active)
CCN(CC)CCOc1ccc(Nc2ncc3cc(-c4c(Cl)cccc4Cl)c(=O)n(C)c3n2)cc1: 1480 nM (active)
C[C@@H](N)C1CCC(C(=O)Nc2ccncc2)CC1 (some centres not stated): inactive

Now for a further compound.
Inquiry: Entry CCN(CCO)CCCC(C)Nc1ccnc2cc(Cl)ccc12 (configuration not stated) : reported IC50 (viability decrease) = ?
Reply text: inactive
